System: human erythrocytes
Test: In vitro hemolytic activity
Assay type: cell-based
Details: human erythrocytes in PBS, 1 h, 37 °C, OD550; from dose response curves
Protocol: Potential erythrocyte hemolysis was tested by incubating serial dilutions of the AMPs in PBS with freshly collected erythrocytes at a ratio of 1:1 in 96-well polypropylene V-shape plates for 1 h at 37 °C. Control wells were treated with 0.1% Triton-X-100 to ensure complete lysis or PBS-only to represent no lysis. The erythrocytes were collected by centrifugation and the OD550 of the supernatant was measured using a plate reader. The percentage hemolysis was calculated as [drawing 1] […]
I'd appreciate it if you marked entries fulfilled when HC10 (concentration causing 10% hemolysis) is lower than 90 µg/mL and not fulfilled when it is not.

Prompt line: Regarding CC[C@H](C)[C@H](NC(=O)[C@H](C)NC(=O)[C@H](CCCCN)NC(=O)[C@@H]1CCCN1C(=O)[C@@H](NC(=O)[C@H](CC(C)C)NC(=O)[C@H](CO)NC(=O)[C@H](Cc1ccccc1)NC(=O)[C@H](CC(C)C)NC(=O)[C@@H](N)Cc1ccccc1)[C@@H](C)CC)C(=O)NCC(=O)NCC(=O)N[C@@H](CC(C)C)C(=O)N[C@H](C(=O)N[C@@H](CO)C(=O)N[C@@H](C)C(=O)N[C@@H](Cc1ccccc1)C(=O)N[C@@H](CCCCN)C(N)=O)[C@@H](C)CC [AamAP-S1a] , kindly confirm whether its HC10 (concentration causing 10% hemolysis) is beneath 90 µg/mL.
Response line: fulfilled

====

test system: human erythrocytes; assay: In vitro hemolytic activity; type: cell-based; details: human erythrocytes in PBS, 1 h, 37 °C, OD550; from dose response curves
Where a SMILES comes first, the peptide text is derived from it.
readout: HC50 (concentration causing 50% hemolysis) (µg/mL)
// return numeric value only (unit: µg/mL, not printed)

Reference set, count: 2
CC(C)[C@H](NC(=O)CNC(=O)[C@H](CCCNC(=N)N)NC(=O)[C@H](CCCNC(=N)N)NC(=O)[C@H](CS)NC(=O)[C@@H](NC(=O)[C@H](CS)NC(=O)[C@@H](N)CCCNC(=N)N)C(C)C)C(=O)N[C@@H](CS)C(=O)N[C@@H](CCCNC(=N)N)C(=O)N[C@@H](CS)C(=O)N[C@H](C(=O)N[C@@H](CS)C(=O)N[C@@H](CCCNC(=N)N)C(=O)N[C@@H](CCCNC(=N)N)C(N)=O)C(C)C [BTD15a] (H-RCVCRRGVCRCVCRR-NH2; N-terminus assumed)
33
CC[C@H](C)[C@H](NC(=O)[C@H](C)NC(=O)[C@H](CCCCN)NC(=O)[C@@H]1CCCN1C(=O)[C@@H](NC(=O)[C@H](CC(C)C)NC(=O)[C@H](CO)NC(=O)[C@H](Cc1ccccc1)NC(=O)[C@H](CC(C)C)NC(=O)[C@@H](N)Cc1ccccc1)[C@@H](C)CC)C(=O)NCC(=O)NCC(=O)N[C@@H](CC(C)C)C(=O)N[C@H](C(=O)N[C@@H](CO)C(=O)N[C@@H](C)C(=O)N[C@@H](Cc1ccccc1)C(=O)N[C@@H](CCCCN)C(N)=O)[C@@H](C)CC [AamAP-S1a]
112

Prompt line: What measured HC50 (concentration causing 50% hemolysis) goes with CC[C@H](C)[C@H](NC(=O)[C@H](C)NC(=O)[C@H](CCCCN)NC(=O)[C@@H]1CCCN1C(=O)[C@@H](NC(=O)[C@H](CC(C)C)NC(=O)[C@H](CO)NC(=O)[C@H](Cc1ccccc1)NC(=O)[C@H](CC(C)C)NC(=O)[C@@H](N)Cc1ccccc1)[C@@H](C)CC)C(=O)NCC(=O)NCC(=O)N[C@@H](CC(C)C)C(=O)N[C@H](C(=O)N[C@@H](CO)C(=O)N[C@@H](C)C(=O)N[C@@H](Cc1ccccc1)C(=O)N[C@@H](CCCCN)C(=O)O)[C@@H](C)CC [AamAP-S1] ?
Response line: 195

====

# Modal MIC values compiled below
tested on: S. aureus (MRSA) USA300; assay: microbe, parasite or virus in culture; format: cell-based, Staphylococcus aureus; conditions: S. aureus (MRSA) USA300 (R); shown in µM
Where a SMILES comes first, the peptide text is derived from it.
Respond numerically; units are µM and should not be typed.

CC[C@H](C)[C@H](NC(=O)[C@H](C)NC(=O)CNC(=O)[C@H](C)NC(=O)[C@H](CCCCN)NC(=O)[C@H](CO)NC(=O)[C@H](C)NC(=O)[C@H](CCSC)NC(=O)CN)C(=O)N[C@@H](C)C(=O)NCC(=O)N[C@@H](CCCCN)C(=O)N[C@H](C(=O)N[C@@H](C)C(=O)N[C@@H](CCCCN)C(=O)N[C@H](C(=O)N[C@@H](C)C(=O)N[C@@H](CC(C)C)C(=O)N[C@@H](CCCCN)C(=O)N[C@@H](C)C(=O)N[C@@H](CC(C)C)C(N)=O)C(C)C)[C@@H](C)CC [DRAMP02272a] (H-GMASKAGAIAGKIAKVALKAL-NH2)
16

# input for lookup
Prompt line: Sample CC[C@H](C)[C@H](NC(=O)[C@H](Cc1c[nH]c2ccccc12)NC(=O)[C@H](CC(=O)O)NC(=O)[C@H](Cc1c[nH]c2ccccc12)NC(=O)[C@@H](NC(=O)[C@H](CCCCN)NC(=O)CN)C(C)C)C(=O)N[C@@H](CCCCN)C(=O)N[C@@H](CO)C(=O)N[C@H](C(=O)N[C@@H](C)C(=O)N[C@@H](CCCCN)C(=O)N[C@@H](CCCCN)C(=O)N[C@@H](CC(C)C)C(=O)N[C@@H](Cc1c[nH]c2ccccc12)C(=O)N[C@@H](CC(N)=O)C(N)=O)[C@@H](C)O [Opis16a] (H-GKVWDWIKSTAKKLWN-NH2) — what was its Modal MIC?
Response line: 4

====

Modal MIC90 listing for selected molecules.
system: C. auris TDG 1912; test: microbe, parasite or virus in culture; format: cell-based, Candida auris; conditions: C. auris TDG 1912; shown in µM
Where a SMILES comes first, the peptide text is derived from it.

CC[C@H](C)[C@H](NC(=O)[C@H](Cc1c[nH]c2ccccc12)NC(=O)[C@H](CC(=O)O)NC(=O)[C@H](Cc1c[nH]c2ccccc12)NC(=O)[C@@H](NC(=O)[C@H](CCCCN)NC(=O)CN)C(C)C)C(=O)N[C@@H](CCCCN)C(=O)N[C@@H](CO)C(=O)N[C@H](C(=O)N[C@@H](C)C(=O)N[C@@H](CCCCN)C(=O)N[C@@H](CCCCN)C(=O)N[C@@H](CC(C)C)C(=O)N[C@@H](Cc1c[nH]c2ccccc12)C(=O)N[C@@H](CC(N)=O)C(N)=O)[C@@H](C)O [Opis16a] (H-GKVWDWIKSTAKKLWN-NH2)
> 64.7 µM

// moving on: another record for Modal MIC90
Prompt line: For the molecule shown here, CC(C)C[C@H](NC(=O)[C@H](CCCCN)NC(=O)[C@H](CO)NC(=O)[C@H](CCCCN)NC(=O)[C@H](Cc1c[nH]c2ccccc12)NC(=O)[C@H](C)NC(=O)[C@H](CCCCN)NC(=O)[C@@H](N)CCCCN)C(=O)N[C@@H](C)C(=O)N[C@@H](CCCCN)C(=O)N[C@@H](CCCCN)C(=O)N[C@@H](CC(C)C)C(=O)N[C@@H](CCCNC(=N)N)C(=O)N[C@@H](C)C(=O)N[C@@H](CCCCN)C(=O)NCC(=O)N[C@@H](CCCCN)C(N)=O [PS-PB-14a] (H-KKAWKSKLAKKLRAKGK-NH2) , give the reported Modal MIC90.
Response line: > 63.8 µM

====

tested on: C. tropicalis NCPF 8760; experiment: microbe, parasite or virus in culture; format: cell-based; settings: C. tropicalis NCPF 8760; 90% growth inhibition; RPMI 1640 + 2% glucose, 37 °C, 20 h
Where a SMILES comes first, the peptide text is derived from it.
In this section, each of the molecules is paired with its reported Modal MIC90.

Reference set, count: 2
CC(C)[C@H](NC(=O)CNC(=O)[C@H](CCCNC(=N)N)NC(=O)[C@H](CCCNC(=N)N)NC(=O)[C@H](CS)NC(=O)[C@@H](NC(=O)[C@H](CS)NC(=O)[C@@H](N)CCCNC(=N)N)C(C)C)C(=O)N[C@@H](CS)C(=O)N[C@@H](CCCNC(=N)N)C(=O)N[C@@H](CS)C(=O)N[C@H](C(=O)N[C@@H](CS)C(=O)N[C@@H](CCCNC(=N)N)C(=O)N[C@@H](CCCNC(=N)N)C(N)=O)C(C)C [BTD15a] (H-RCVCRRGVCRCVCRR-NH2; N-terminus assumed)
8 mg/L
CC[C@H](C)[C@H](NC(=O)[C@H](CCCCN)NC(=O)[C@H](CC(C)C)NC(=O)[C@H](C)NC(=O)[C@H](C)NC(=O)[C@H](CCCCN)NC(=O)[C@H](CC(C)C)NC(=O)[C@H](C)NC(=O)[C@@H](N)CCCCN)C(=O)NCC(N)=O [CPF-P3-10a] (H-KALKAALKIG-NH2)
> 128 mg/L

# input for lookup
Prompt line: Please give the measured Modal MIC90 for this molecule: CC[C@H](C)[C@H](NC(=O)[C@H](CCCCN)NC(=O)[C@H](CC(C)C)NC(=O)[C@H](C)NC(=O)[C@H](C)NC(=O)[C@H](CCCCN)NC(=O)[C@H](CC(C)C)NC(=O)[C@H](C)NC(=O)[C@@H](N)CCCCN)C(=O)NCC(=O)N[C@@H](C)C(=O)N[C@@H](CC(N)=O)C(N)=O [CPF-P3-12a] (H-KALKAALKIGAN-NH2)
Response line: > 128 mg/L

meta.source: paper PMC11191095
